// values below are reported Effects Barnyardgrass
Tested on: barnyardgrass
experiment-description: Soil treatment test for upland field
Assay type: in vivo, Echinochloa crusgalli
Set-up: key: 0: normal development; 1: Less damaged; 2: Slightly damaged; 3: Moderately damaged; 4: Severely damaged; 5: All killed
experimental-context: 500 g/ha, glass house 25° C., 3 weeks

Example entries and their recorded answers appear below.
{"compound": "CCC(Oc1cccc(C(F)(F)F)c1)c1nc2ccc(C(F)(F)F)cc2o1 (stereo not drawn)", "measurement-kind": "Effects Barnyardgrass", "obs-value": 3}
{"compound": "CCCC(Oc1ccc(F)c(C(F)(F)F)c1)c1nc2cc(Cl)ccc2o1 (stereo not drawn)", "measurement-kind": "Effects Barnyardgrass", "obs-value": 3}
{"compound": "CCC(Oc1cccc(C(F)(F)F)c1)c1nc2cc(S(C)(=O)=O)ccc2o1 (stereo not drawn)", "measurement-kind": "Effects Barnyardgrass", "obs-value": 3}
{"compound": "CCC(Oc1cccc(C(F)(F)F)c1)c1nc2cc(Br)ccc2o1 (stereo not drawn)", "measurement-kind": "Effects Barnyardgrass", "obs-value": 4}
{"compound": "CCC(Oc1ccc(F)c(C(F)(F)F)c1)c1nc2cc(F)c(F)cc2o1 (stereo not drawn)", "measurement-kind": "Effects Barnyardgrass", "obs-value": 5}

(Q) # return recorded Effects Barnyardgrass for entry CCC(Oc1ccc(F)c(C(F)(F)F)c1)c1nc2ccc(Cl)cc2o1 (stereo not drawn)
(A) 4

(Q) # return recorded Effects Barnyardgrass for entry CCCC(Oc1ccc(F)c(C(F)(F)F)c1)c1nc2cc(S(C)(=O)=O)c(C)cc2o1 (stereo not drawn)
(A) 2

Cited source for all entries: patent US6706664B1
